# Target or test system: AgFus1
# Method: SPOT peptide array binding signal intensity (averaged, normalized) (arbitrary units (background-subtracted, floor 0; scale differs between SH3 domains)); higher = stronger binding of the SH3 domain to the peptide
Parameter measured: SPOT peptide array binding signal intensity
Answers are plain numbers.

Reference set, count: 2
SKSRLLIELPEGFFT = 322
AERNYAPRLPRRETS = 3.25

Quick one: SPOT peptide array binding signal intensity for `EVTPKVPERPSRRKT` ? 4.5
